What EC50 was measured for each of the following?
- test: Trypanosoma cruzi growth suppression in host cells – NIH3T3 host cells, beta-gal luminescence, confirmation (AID 2044);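 note: intracellular parasites grown in NIH/3T3 mouse fibroblasts as host cells; luminescent beta-galactosidase reporter signal from transgenic T. cruzi replicating inside host cells; inhibitors lower the luminescence signal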
- Format: functional, cell-based
Activity calls are given as the source filed them. Cut-off read from the data, not from the text of the source: actives have a measured EC50 and inactives only a lower limit.

Q: Request the reported EC50 associated with Cc1ccnc(NC(=O)c2ccc([N+](=O)[O-])s2)c1
Ans: 743 nM (active)

Q: Any idea what EC50 was measured for Cc1sc(NC(=O)c2ccco2)c(C(c2cccnc2)N2CCC(C)CC2)c1C (stereo not drawn) ?
Ans: < 100 nM (active)

Q: Looking for the measured EC50 of CC(C)N(CCNC(=O)c1nn(Cc2ccccc2)c(=O)c2ccccc12)C(C)C , can you help?
Ans: 1460 nM (active)

Q: What value of EC50 has been recorded for this entry: Cc1cccc(OCCCCCn2ccnc2)c1
Ans: 443 nM (active)

Q: Look up EC50 for this compound: O=C(COc1ncnc2cc([N+](=O)[O-])ccc12)NCCc1ccc(Cl)cc1
Ans: < 100 nM (active)

Q: Would you kindly share the measured EC50 for N#Cc1c(N)nc(SCc2ccncc2)c(C#N)c1-c1cccs1 ?
Ans: 145 nM (active)

Q: Item under review: CC1(C)CC(N2CCCCC2)=CC(=[N+]2CCCCC2)C1 . Reported EC50?
Ans: 369 nM (active)

Q: Quick one: EC50 for CC(C(=O)Nc1ccccc1C(=O)O)n1c(C(F)(F)F)nc2ccccc21 (stereo not drawn) ?
Ans: 9950 nM (active)
